# credit: ChEMBL document CHEMBL1681740

Assignment: determine reported Ratio for the given compounds.
assay: Ratio of drug uptake in CSF to fraction unbound in plasma in rat; assay type: ADME, cell-free

q: Query (compound): `N#Cc1ccc(N2CCN(Cc3cc(C(=O)O)c(=O)n4ccccc34)CC2)cc1` ; field requested: Ratio
a: 0.42

q: What do you get for O=C(O)c1cc(CN2CCc3ccccc3C2c2ccncc2)c2ccccn2c1=O (centres undefined) ?
a: 0.37

q: `Cc1ccc(C2CCN(Cc3cc(C(=O)O)c(=O)n4ccccc34)CC2)cc1` ?
a: 0.7

q: Same again, this time with `O=C(O)c1cc(CN2CCc3cc(Cl)ccc3C2)c2ccccn2c1=O`
a: 0.63
